molecular target: Protein cereblon/DNA damage-binding protein 1 (Homo sapiens) (UniProt Q96SW2+Q16531); details: Sf9
Sequence (Q16531 2-1140 partner limits assumed): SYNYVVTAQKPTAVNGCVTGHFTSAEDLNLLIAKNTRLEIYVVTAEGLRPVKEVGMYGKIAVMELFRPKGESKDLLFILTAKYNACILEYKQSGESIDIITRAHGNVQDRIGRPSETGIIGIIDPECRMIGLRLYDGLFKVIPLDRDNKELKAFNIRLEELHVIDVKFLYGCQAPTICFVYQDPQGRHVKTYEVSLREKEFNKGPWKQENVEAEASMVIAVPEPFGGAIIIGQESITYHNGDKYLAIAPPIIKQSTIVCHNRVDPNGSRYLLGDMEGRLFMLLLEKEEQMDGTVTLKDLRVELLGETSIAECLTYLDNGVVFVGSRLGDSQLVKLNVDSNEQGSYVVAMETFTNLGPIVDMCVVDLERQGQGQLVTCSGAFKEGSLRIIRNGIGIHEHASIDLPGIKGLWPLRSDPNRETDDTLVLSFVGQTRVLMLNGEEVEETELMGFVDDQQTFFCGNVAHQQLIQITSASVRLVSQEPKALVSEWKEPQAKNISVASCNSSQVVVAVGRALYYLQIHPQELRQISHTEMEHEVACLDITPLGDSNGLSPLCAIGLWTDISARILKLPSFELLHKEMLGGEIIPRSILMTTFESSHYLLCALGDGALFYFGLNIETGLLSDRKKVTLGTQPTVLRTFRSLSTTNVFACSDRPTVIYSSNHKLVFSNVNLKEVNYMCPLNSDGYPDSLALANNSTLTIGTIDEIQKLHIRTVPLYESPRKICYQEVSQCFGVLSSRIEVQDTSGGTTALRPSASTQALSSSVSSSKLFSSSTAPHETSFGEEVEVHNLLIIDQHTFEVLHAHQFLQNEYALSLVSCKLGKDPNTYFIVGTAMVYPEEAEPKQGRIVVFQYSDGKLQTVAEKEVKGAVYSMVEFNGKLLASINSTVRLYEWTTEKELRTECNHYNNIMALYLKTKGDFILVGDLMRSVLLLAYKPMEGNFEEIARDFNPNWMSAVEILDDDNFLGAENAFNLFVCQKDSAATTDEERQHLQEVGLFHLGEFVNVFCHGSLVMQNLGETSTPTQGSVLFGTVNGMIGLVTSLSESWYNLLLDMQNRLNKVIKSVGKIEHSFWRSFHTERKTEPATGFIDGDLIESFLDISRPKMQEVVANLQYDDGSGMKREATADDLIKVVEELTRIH
Sequence (Q96SW2 whole entry): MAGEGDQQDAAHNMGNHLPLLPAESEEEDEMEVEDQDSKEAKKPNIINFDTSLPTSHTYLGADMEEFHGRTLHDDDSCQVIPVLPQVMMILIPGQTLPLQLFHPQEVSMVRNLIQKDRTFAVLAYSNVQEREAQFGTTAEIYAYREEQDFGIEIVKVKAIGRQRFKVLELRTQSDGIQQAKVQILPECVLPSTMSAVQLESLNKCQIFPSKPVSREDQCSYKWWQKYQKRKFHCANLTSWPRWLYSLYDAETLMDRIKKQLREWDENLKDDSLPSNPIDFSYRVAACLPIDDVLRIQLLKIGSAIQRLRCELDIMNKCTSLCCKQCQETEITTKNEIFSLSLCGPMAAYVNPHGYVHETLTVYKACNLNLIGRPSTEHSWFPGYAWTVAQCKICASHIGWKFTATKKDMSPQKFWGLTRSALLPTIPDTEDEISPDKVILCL
Description: Induction of thermal stabilization of ZZ domain 6-His thrombin tagged human CRBN (1 to 442 residues)/full length human DDB1 (396 to 706 residues) expressed in baculovirus infected Sf9 cells assessed as change in melting temperature by thermal shift assay
Test readout: ΔTm (°C)

{"columns": ["Compound", "Numeric readout"],
 "data": [
  ["Cn1nc(C2CCC(=O)NC2=O)c2ccc(N3CCN(C(=O)OC(C)(C)C)CC3)cc21 (stereo not given)", 5.6],
  ["CC(C)(C)OC(=O)N1CCC(CNc2ccc(C3CCC(=O)NC3=O)cc2)CC1 (stereo not given)", 3.4],
  ["Cn1nc(C2CCC(=O)NC2=O)c2ccc(NC3CCCCC3)cc21 (stereo not given)", 6],
  ["Cn1nc(C2CCC(=O)NC2=O)c2ccc(N3CCCC(F)(F)C3)cc21 (stereo not given)", 5.4],
  ["Cn1nc(C2(C)CCC(=O)NC2=O)c2ccc(NCC3CCN(C(=O)OC(C)(C)C)CC3)cc21 (stereo not given)", 4.7],
  ["Cn1nc(C2CCC(=O)NC2=O)c2ccc(NC3CCCN(C(=O)OC(C)(C)C)CC3)cc21 (stereo not given)", 5.8],
  ["Cn1nc(C2CCC(=O)NC2=O)c2ccc(N3CCC4(CC3)OCCO4)cc21 (stereo not given)", 6],
  ["CN(C(=O)OC(C)(C)C)C1CCN(c2ccc(C3CCC(=O)NC3=O)cc2)CC1 (stereo not given)", 3],
  ["CC(C)(C)OC(=O)N1CCC(CNc2ccc3c(ccn3C3CCC(=O)NC3=O)n2)CC1 (stereo not given)", 4],
  ["Cn1nc(C2CCC(=O)NC2=O)c2cc(NCC3CCN(C(=O)OC(C)(C)C)CC3)ccc21 (stereo not given)", 2.4]
]}
